The reported numbers originate from PubChem BioAssay AID2060489.

Tested on: 922993-354-T-J3-PDC complex spheroids, viability
Assay: Anticancer human tumor 922993-354-T-J3-PDC patient-derived endometrial carcinoma cell line growth inhibition [GQUAD]
Conditions: compound alone; run of 03/18/2024
Excerpt: DNA G-quadruplex Stabilizer Agents in Combinations in Complex Spheroids A high-throughput screen of multi-cell type tumor spheroids was designed to identify active combinations of DNA G-quadruplex stabilizer agents and targeted small molecules. […] Compounds. […] If the clinical Cmax for an agent had not been determined, the highest concentration tested was 10 microM. […]
pIC50: −log10 of the molar value.
PARAMETER_MEASURED: pIC50

Give the measured pIC50 for Cc1[nH]c2ccc(F)cc2c1-c1nc2c3cccnc3c3ncccc3c2[nH]1 < 5.00

----------
system: 922993-354-T-J3-PDC complex spheroids, viability; experiment: Anticancer human tumor 922993-354-T-J3-PDC cell line growth inhibition [GQUAD]; details: curve of first compound; second compound 10 µM;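 also: spheroids exposed to compounds for seven days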
Each entry below carries its recorded IC50.

COMPOUND: CC(=O)O[C@H]1C(=O)[C@@]2(C)[C@H]([C@H](OC(=O)c3ccccc3)[C@]3(O)C[C@H](OC(=O)[C@H](O)[C@@H](NC(=O)c4ccccc4)c4ccccc4)C(C)=C1C3(C)C)[C@]1(OC(C)=O)CO[C@@H]1C[C@@H]2O + Cc1[nH]c2ccc(F)cc2c1-c1nc2c3cccnc3c3ncccc3c2[nH]1
PARAMETER_MEASURED: IC50
OBSERVED_VALUE: > 10 µM

Now for another entry.
Give the measured IC50 for COc1cc(C2c3cc4c(cc3C(OC3OC5COC(C)OC5C(O)C3O)C3COC(=O)C23)OCO4)cc(OC)c1O (configuration not stated) + CN(C)c1ccc(Nc2c3ccc(NC(=O)CCN4CCCC4)cc3nc3cc(NC(=O)CCN4CCCC4)ccc23)cc1 > 10 µM

----------
test system: 922993-354-T-J3-PDC complex spheroids, viability; assay: Anticancer human tumor 922993-354-T-J3-PDC cell line growth inhibition [GQUAD]; settings: second compound 0.0316 µM; first compound 0.316 µM; stronger effect = lower value;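 also: spheroids exposed to compounds for seven days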;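 as to viability, T/C: 100% = DMSO vehicle control viability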
PARAMETER_MEASURED: viability, T/C

Here is how some compounds turned out for viability, T/C.
COMPOUND: COc1cc(C2c3cc4c(cc3C(OC3OC5COC(C)OC5C(O)C3O)C3COC(=O)C23)OCO4)cc(OC)c1O (stereo unspecified) + Cc1[nH]c2ccc(F)cc2c1-c1nc2c3cccnc3c3ncccc3c2[nH]1
OBSERVED_VALUE: 83.8%
//
COMPOUND: CCCS(=O)(=O)Nc1ccc(F)c(C(=O)c2c[nH]c3ncc(-c4ccc(Cl)cc4)cc23)c1F + Cc1[nH]c2ccc(F)cc2c1-c1nc2c3cccnc3c3ncccc3c2[nH]1
OBSERVED_VALUE: 78.5%
//
COMPOUND: CCc1c2c(nc3ccc(O)cc13)-c1cc3c(c(=O)n1C2)COC(=O)[C@]3(O)CC + Cc1[nH]c2ccc(F)cc2c1-c1nc2c3cccnc3c3ncccc3c2[nH]1
OBSERVED_VALUE: 32.9%
//
COMPOUND: COc1cccc2c1C(=O)c1c(O)c3c(c(O)c1C2=O)CC(O)(C(=O)CO)CC3OC1CC(N)C(O)C(C)O1 (stereo unspecified) + CN(C)c1ccc(Nc2c3ccc(NC(=O)CCN4CCCC4)cc3nc3cc(NC(=O)CCN4CCCC4)ccc23)cc1
OBSERVED_VALUE: 108%
//
COMPOUND: C#Cc1c(F)ccc2cc(O)cc(-c3ncc4c(N5CC6CCC(C5)N6)nc(OCC56CCCN5CC(F)C6)nc4c3F)c12 (stereo unspecified) + CN(C)c1ccc(Nc2c3ccc(NC(=O)CCN4CCCC4)cc3nc3cc(NC(=O)CCN4CCCC4)ccc23)cc1
OBSERVED_VALUE: 97.2%

Give the measured viability, T/C for CC1COCCN1c1cc(C2(S(C)(=N)=O)CC2)nc(-c2ccnc3[nH]ccc23)n1 (stereo unspecified) + Cc1cnc(CNC(=O)c2c(=O)c3ccc(N4CCCN(C)CC4)nc3n3c2sc2ccccc23)cn1 82.8%

Give the measured viability, T/C for Cn1ncnc1[C@H]1c2n[nH]c(=O)c3cc(F)cc(c23)N[C@@H]1c1ccc(F)cc1 + CN(C)c1ccc(Nc2c3ccc(NC(=O)CCN4CCCC4)cc3nc3cc(NC(=O)CCN4CCCC4)ccc23)cc1 60.4%

Give the measured viability, T/C for CC1COCCN1c1cc(-c2ccnn2C)c2ccnc(-c3ccn[nH]3)c2n1 (stereo unspecified) + CN(C)c1ccc(Nc2c3ccc(NC(=O)CCN4CCCC4)cc3nc3cc(NC(=O)CCN4CCCC4)ccc23)cc1 50.3%

Give the measured viability, T/C for Cn1ncnc1[C@H]1c2n[nH]c(=O)c3cc(F)cc(c23)N[C@@H]1c1ccc(F)cc1 + Cc1cnc(CNC(=O)c2c(=O)c3ccc(N4CCCN(C)CC4)nc3n3c2sc2ccccc23)cn1 59.9%

Give the measured viability, T/C for Cc1cccc(N(C)C(=O)C2C(O)CCN2c2nc(C)cc(C(F)(F)F)c2C#N)c1 (stereo unspecified) + Cc1cnc(CNC(=O)c2c(=O)c3ccc(N4CCCN(C)CC4)nc3n3c2sc2ccccc23)cn1 88%

Give the measured viability, T/C for CC1COCCN1c1cc(-c2ccnn2C)c2ccnc(-c3ccn[nH]3)c2n1 (stereo unspecified) + Cc1[nH]c2ccc(F)cc2c1-c1nc2c3cccnc3c3ncccc3c2[nH]1 44.3%
